The measured values listed here are drawn from patent US20230416329A1.

Target: bovine trypsin (Bos taurus)
Sequence (P00760 24-246): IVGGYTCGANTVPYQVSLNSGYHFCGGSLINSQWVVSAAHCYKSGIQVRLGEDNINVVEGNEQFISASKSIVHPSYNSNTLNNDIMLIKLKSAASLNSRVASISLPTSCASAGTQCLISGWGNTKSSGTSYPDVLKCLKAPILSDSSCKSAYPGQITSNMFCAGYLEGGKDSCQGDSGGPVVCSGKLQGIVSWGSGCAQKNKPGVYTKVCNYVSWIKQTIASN
Assay: Trypsin inhibitory activity of peptides (BApNA hydrolysis, OD405; IC50, Ki, residual activity)
Format: biochemical
Details: peptide 9.76 μM
Bridge positions count the residues as written; N and C are the ends. Square brackets hold non-standard residues; d marks the D form. Peptide text beside a SMILES is read from it. Nle = CCCC[C@H](N)C(=O)O
I'd be grateful if you could share measured Residual trypsin activity for these entries.
Give the quantity in %, number only.

Ask: // returns reported Residual trypsin activity for input CC[C@H](C)[C@@H]1NC(=O)[C@@H]2CCCN2C(=O)[C@@H]2CCCN2C(=O)[C@H]([C@@H](C)CC)NC(=O)[C@H](CO)NC(=O)[C@H](CCCCN)NC(=O)[C@H]([C@@H](C)O)NC(=O)[C@H](C)NC(=O)[C@H](CCCNC(=N)N)NC(=O)[C@@H]2CCCN2C(=O)[C@@H](N)CSSC[C@@H](C(=O)N[C@@H](Cc2ccccc2)C(=O)O)NC1=O [BT66] (H-CPRATKSIPPICF-OH; disulfide 1-12; C-terminus assumed)
Result: 0.1

Ask: Any idea what its Residual trypsin activity is? The molecule is CCCC[C@@H]1NC(=O)[C@H](CO)NC(=O)[C@H](CCCCN)NC(=O)[C@H]([C@@H](C)O)NC(=O)[C@H](C)NC(=O)[C@H](CCCNC(=N)N)NC(=O)CNC(=O)[C@@H](N)CSSC[C@@H](C(=O)N[C@@H](Cc2ccccc2)C(=O)O)NC(=O)[C@H]([C@@H](C)CC)NC(=O)[C@@H]2CCCN2C(=O)[C@@H]2CCCN2C1=O [BT28] (H-CGRATKS[Nle]PPICF-OH; disulfide 1-12; C-terminus assumed)
Result: 0.1

Ask: Give its Residual trypsin activity value. Item: CC[C@H](C)[C@@H]1NC(=O)[C@@H]2CCCN2C(=O)[C@@H]2CCCN2C(=O)[C@H]([C@@H](C)CC)NC(=O)[C@H](CO)NC(=O)[C@H](CCCCN)NC(=O)[C@H]([C@@H](C)O)NC(=O)[C@H](CO)NC(=O)[C@H](CCCNC(=N)N)NC(=O)CNC(=O)[C@@H](N)CSSC[C@@H](C(=O)N[C@@H](Cc2ccccc2)C(=O)O)NC1=O [BT47] (H-CGRSTKSIPPICF-OH; disulfide 1-12; C-terminus assumed)
Result: 0.0

Ask: Query (molecule): CC[C@H](C)[C@@H]1NC(=O)[C@@H]2CCCN2C(=O)[C@@H]2CCCN2C(=O)[C@H]([C@@H](C)CC)NC(=O)[C@H](CO)NC(=O)[C@H](CCCNC(=N)N)NC(=O)[C@H]([C@@H](C)O)NC(=O)[C@H](C)NC(=O)[C@H](CCCNC(=N)N)NC(=O)CNC(=O)[C@@H](N)CSSC[C@@H](C(=O)N[C@@H](Cc2ccccc2)C(=O)O)NC1=O [BT17] (H-CGRATRSIPPICF-OH; disulfide 1-12; C-terminus assumed) ; field requested: Residual trypsin activity
Result: 0.1

Ask: // Residual trypsin activity lookup, key: CC[C@H](C)[C@@H]1NC(=O)[C@@H]2CCCN2C(=O)[C@@H]2CCCN2C(=O)[C@H]([C@@H](C)CC)NC(=O)[C@H](CO)NC(=O)[C@H](CCCCN)NC(=O)[C@H]([C@@H](C)O)NC(=O)[C@H](CCC(N)=O)NC(=O)[C@H](CCCNC(=N)N)NC(=O)CNC(=O)[C@@H](N)CSSC[C@@H](C(=O)N[C@@H](Cc2ccccc2)C(=O)O)NC1=O [BT54] (H-CGRQTKSIPPICF-OH; disulfide 1-12; C-terminus assumed)
Result: −0.1

Ask: What Residual trypsin activity value was documented for this molecule, CC[C@H](C)[C@@H]1NC(=O)[C@@H]2CCCN2C(=O)[C@@H]2CCCN2C(=O)[C@H]([C@@H](C)CC)NC(=O)[C@H](CO)NC(=O)[C@H](CCCCN)NC(=O)[C@H]([C@@H](C)O)NC(=O)[C@H](C)NC(=O)[C@H](CCCNC(=N)N)NC(=O)[C@H](C)NC(=O)[C@@H](N)CSSC[C@@H](C(=O)N[C@@H](Cc2ccccc2)C(=O)O)NC1=O [BT67] (H-CARATKSIPPICF-OH; disulfide 1-12) ?
Result: 0.1

Ask: Can you share its Residual trypsin activity? I mean this molecule: CC[C@H](C)[C@@H]1NC(=O)[C@@H]2CCCN2C(=O)[C@@H]2CCCN2C(=O)[C@H]([C@@H](C)CC)NC(=O)[C@H](CO)NC(=O)[C@H](CCCCN)NC(=O)[C@H](C)NC(=O)[C@H](C)NC(=O)[C@H](CCCNC(=N)N)NC(=O)CNC(=O)[C@@H](N)CSSC[C@@H](C(=O)N[C@@H](Cc2ccccc2)C(=O)O)NC1=O [BT26] (H-CGRAAKSIPPICF-OH; disulfide 1-12; N-terminus and C-terminus assumed)
Result: 0.4

Ask: Reported Residual trypsin activity, molecule CC[C@H](C)[C@@H]1NC(=O)[C@H](CO)NC(=O)[C@H](CCCCN)NC(=O)[C@H]([C@@H](C)O)NC(=O)[C@H](C)NC(=O)[C@H](CCCNC(=N)N)NC(=O)CNC(=O)[C@@H](N)CSSC[C@@H](C(=O)N[C@@H](Cc2ccc(O)cc2)C(=O)O)NC(=O)[C@H](CCC(N)=O)NC(=O)[C@@H]2CCCN2C(=O)[C@@H]2CCCN2C1=O [BT12] (H-CGRATKSIPPQCY-OH; disulfide 1-12; N-terminus and C-terminus assumed) : ____
Result: 0.7
